biological target: Galactokinase (Homo sapiens); test: qHTS Validation Assay for Inhibitors of Human Galactokinase (GALK) (AID 493189); settings: purified human GALK enzyme activity, qHTS 7-point titration; series mostly up to 57.5 µM; note: 0% is about no effect
The source made the active and inactive calls. Calls come from the whole dose curve; as a rule, active = well fitted curve in the direction sought with a large enough effect; inconclusive = small, poorly fitted or top-dose-only effect, or another doubt; inactive = no such curve, though single readings can be large or run the other way.
Endpoint name: outcome

>>> result("C[C@]12CCC(=O)C=C1CC[C@@H]1[C@@H]2C(=O)C[C@@]2(C)[C@H]1CC[C@]2(O)C(=O)CO")
"inactive"
>>> result("CCN1CCc2nc(N)oc2CC1")
"inactive"
>>> result("CSc1ccc(C(=O)c2[nH]c(=O)[nH]c2C)cc1")
"inactive"

---

System: TAB165
Assay: qHTS profiling for inhibitors of Plasmodium falciparum proliferation (AID 504749); note: nearly all actives have a fitted effect of over 60% in size
Settings: P. falciparum in erythrocytes, SYBR Green DNA, 72 h; series mostly up to 28.7 µM
Method: NIH National Institute of Allergy and Infectious Diseases [NIAID] NIH Chemical Genomics Center [NCGC] […] Because mature erythrocytes lack DNA, only Plasmodium-derived DNA is detected. NCGC Assay Protocol Summary: The SYBR Green viability assay was adapted from a method described previously (Plouffe et al., 2008). […] The following morning, fluorescence intensity at 485(14) nm excitation and 535(25) nm emission wavelengths was measured on an EnVision (Perkin Elmer) plate reader. […]
Records with an inconclusive call do not appear. Calls of active or inactive are those of the source. Calls come from the whole dose curve; as a rule, active = well fitted inhibition curve with a large enough effect; inconclusive = small, poorly fitted or top-dose-only effect; inactive = flat fitted curve, though single readings scatter.
Parameter call: string, one of active, inactive

For orientation, consider the following solved cases.
>>> class_assignment("Fc1ccc(C(c2ccc(F)cc2)N2CCN(C/C=C/c3ccccc3)CC2)cc1")
"active"
>>> class_assignment("O=C(O)CN(CCN(CC(=O)O)CC(=O)O)CCN(CC(=O)O)CC(=O)O")
"inactive"

Please look at the following compound next.
Task: Kindly provide the recorded test outcome for the following compound: CCOC(=O)c1cnc2c(cnn2CC)c1NN=C(C)C
Result: inactive

---

Test: AP1 Signaling Pathway (AID 357);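 note: ME-180 reporter cells stimulated with EGF at its EC50 level; % is set by controls: 0 for no effect and ±100 for the full control effect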
Settings: ME-180 (cervical carcinoma) AP-1-bla reporter, EGF-induced, beta-lactamase ratio, 5 h; at 38 µM (top of the series)
Procedure: NCGC Assay Overview: Activator protein-1 (AP-1), a transcription factor, plays an important role in tumor genesis by regulating genes involved in cell proliferation, differentiation, apoptosis, and angiogenesis. AP-1 activity is induced by a complex network of signaling pathways that involves extracellular signals, such as growth factors. […] Library compounds were measured for their ability to modulate positively or negatively the action of EC50 EGF on reporter gene activity. […]
Inconclusive results are not listed.
Endpoint name: activity change, negative = inhibition (%)
# value in %; strip the unit string

Worked examples, 6 compounds total:
>>> numeric_readout("C[n+]1cc2c3c(ccc2c2ccc4cc5c(cc4c21)OCO5)OCO3")
-111
>>> numeric_readout("NC(N)=NC(=O)Cc1c(Cl)cccc1Cl")
6.16
>>> numeric_readout("CC1=NS(=O)(=O)c2cc(Cl)ccc2N1")
-8.76
>>> numeric_readout("CN(C)C(=O)Oc1cccc([N+](C)(C)C)c1")
-1.33
>>> numeric_readout("Cc1ccc(Cl)c(Nc2ccccc2C(=O)O)c1Cl")
-15.5
>>> numeric_readout("O=C(O)CN(CCN(CC(=O)O)CC(=O)O)CCN(CC(=O)O)CC(=O)O")
10

Task: What does the record list as activity change, negative = inhibition for CCN(CC)CCNC(=O)c1cc(S(C)(=O)=O)ccc1OC ?
Result: 5.15

Task: Please answer likewise for Cc1nc2c([nH]1)c(=O)n(C)c(=O)n2Cc1ccco1
Result: -6.02

Task: Ok, now CN(C)CCOC(=O)COc1ccc(Cl)cc1
Result: -0.251

Task: # repeat for c1cc(CN2CCCCC2)cc(OCCCNc2nc3ccccc3s2)c1
Result: 6.03

Task: Continue with CCCCNc1c(C(=O)OCC)c(C)nc2c1cnn2CC
Result: -13.4

Task: Then this compound: CN(C(=O)CCCOc1ccc2[nH]c(=O)ccc2c1)C1CCCCC1
Result: -11.1

Task: // query: COc1cc(Cc2cnc(N)nc2N)cc(OC)c1OC
Result: -4.63

Task: Continue with Nc1nc(N)c2nc(-c3ccccc3)c(N)nc2n1
Result: -2.44

Task: Follow-up entry: CCn1nc(C(=O)O)c(=O)c2cc3c(cc21)OCO3
Result: -2.22

Task: Would you kindly repeat that for COC(=O)[C@@H](N)Cc1ccc(O)c(O)c1 ?
Result: 2.14

Task: Again, but for FC(F)(F)c1ccccc1-n1ccnc1
Result: 7.15

Task: Here is the next compound: NCCCNCCSP(=O)(O)O
Result: 11.2

Task: And Cc1ccc(S(=O)(=O)NC(=O)NN2CCCCCC2)cc1 ?
Result: 4.52

Task: Next record, please: CN=C(NC#N)NCCSCc1nc[nH]c1C
Result: -4.97

Task: Follow-up entry: CCCCNC(=O)NS(=O)(=O)c1ccc(C)cc1
Result: 6.49

Task: Same question for CN/C(=C\[N+](=O)[O-])NCCSCc1ccc(CN(C)C)o1 please.
Result: -6.59

---

experiment: P-glycoprotein substrates identified in KB-8-5-11 adenocarcinoma cell line, qHTS therapeutic library screen (AID 1346987); details: KB-8-5-11 (P-gp overexpressing) viability, CellTiter-Glo, 72 h; series mostly up to 44.5 µM; note: nearly all actives have a fitted effect of over 65% in size; note: potency is the fitted concentration of half-maximal effect
Inconclusive results are not listed. Activity calls are given as the source filed them. The call rests on the fitted dose curve; in most records, active means well fitted inhibition curve with a large enough effect; inconclusive means small, poorly fitted or top-dose-only effect; inactive means flat fitted curve, though single readings scatter.
Endpoint name: Potency

>>> result("CCCC(C(=O)OCCN(CC)CC)(c1ccccc1)c1ccccc1")
"13 µM (active)"
>>> result("CCCN(CCC)C(=O)C(CCC(=O)O)NC(=O)c1ccccc1 (stereo unspecified)")
"inactive"
>>> result("CCn1cc(C(=O)O)c(=O)c2cc3c(cc21)OCO3")
"inactive"
>>> result("O=C1NCN(c2ccccc2)C12CCN(CCCC(c1ccc(F)cc1)c1ccc(F)cc1)CC2")
"14.6 µM (active)"
>>> result("FC(F)(F)c1ccccc1-n1ccnc1")
"inactive"

Task: Quick check: Potency of CCn1ccnc1CC1COc2ccccc2O1 (stereo unspecified) ?
Result: inactive

Task: Item: CCN(CC)CCNC(=O)c1cc(S(C)(=O)=O)ccc1OC
Result: inactive

Task: Also, CN(C)[C@@H]1C(=O)C(C(N)=O)=C(O)[C@@]2(O)C(=O)C3=C(O)c4c(O)ccc(Cl)c4[C@@H](O)[C@H]3C[C@@H]12 please.
Result: inactive

Task: Record: O=C(CCNNC(=O)c1ccncc1)NCc1ccccc1
Result: inactive

Task: Same question, C[C@H](CS)C(=O)N1CCC[C@H]1C(=O)O this time
Result: inactive

Task: Another: CC(C)(C)NCC(O)c1cc(O)cc(O)c1 (stereo unspecified)
Result: inactive

---

Target: Calcium and integrin-binding protein 1 (Homo sapiens)
Assay: Primary qHTS for Identification of Calcium Integrin Binding Protein 1 (CIB1) Competitor (AID 1508620);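 note: GST tagged CIB1 binding a fluorescein labelled alphaIIb integrin peptide tracer; top concentration of the series differs between compounds; % is set by controls: 0 for no effect and ±100 for the full control effect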
Details: CIB1-GST / FITC-alphaIIb peptide fluorescence polarization; series mostly up to 114 µM
Description: Assay Provider: Ulhas P. Naik, PhD Sidney Kimmel Medical College Thomas Jefferson University, Philadelphia, PA Primary function of platelets is to maintain hemostasis. At the site of vascular injury, platelets adhere to adhesive proteins such as collagen and von Willebrand factor. […] PROTOCOL TABLES SEQUENCE No. (1, 2, 3, etc.); […] […] 7; ViewLux Fluorescent Polization Read: excitation = 480(20) / emission = 540(25) S and P; FITC Dichroic mirror.
Inconclusive results are not listed. Activity calls are given as the source filed them. Calls come from the whole dose curve; as a rule, active = well fitted inhibition curve with a large enough effect; inconclusive = small, poorly fitted or top-dose-only effect; inactive = flat fitted curve, though single readings scatter.
Endpoint name: activity change, negative = inhibition

>>> result("CCCC(C(=O)OCCN(CC)CC)(c1ccccc1)c1ccccc1")
"inactive"
>>> result("CCN(CC)CC(=O)Nc1c(C)cccc1C")
"inactive"
>>> result("Cc1ccc(/C(=C\\CN2CCCC2)c2ccccn2)cc1")
"inactive"
>>> result("CNCCC(Oc1ccccc1OC)c1ccccc1 (stereo unspecified)")
"inactive"
>>> result("O=C(CCCN1CCC(O)(c2cccc(C(F)(F)F)c2)CC1)c1ccc(F)cc1")
"inactive"

Consider the record given below.
Task: Which activity change, negative = inhibition value belongs to CN1CCN(C2=Nc3ccccc3Oc3ccc(Cl)cc32)CC1 ?
Result: inactive

---

assay: qHTS of pediatric cancer cell lines to identify multiple opportunities for drug repurposing: Primary screen for SK-N-SH cells (AID 1347098); conditions: SK-N-SH viability, CellTiter-Glo luminescence, 48 h; series mostly up to 57 µM; note: nearly all actives have a fitted effect of over 65% in size
Results filed as inconclusive are left out. The source made the active and inactive calls. Calls come from the whole dose curve; as a rule, active = well fitted cell-killing curve with a large enough effect; inconclusive = small, poorly fitted or top-dose-only effect; inactive = no such curve, though single readings can be large or run the other way.
I would appreciate it if you answered using one of these outcomes: true (active), false (inactive)

>>> class_assignment("NC/C=C/C(=O)O")
"false"
>>> class_assignment("COCCOC(=O)C1=C(C)NC(C)=C(C(=O)OC(C)C)C1c1cccc([N+](=O)[O-])c1 (stereo not given)")
"false"
>>> class_assignment("NC(N)=NC(=O)Cc1c(Cl)cccc1Cl")
"false"
>>> class_assignment("CN(C)CCOC(=O)COc1ccc(Cl)cc1")
"false"
>>> class_assignment("CC(C)COCC(CN(Cc1ccccc1)c1ccccc1)N1CCCC1 (stereo not given)")
"true"
>>> class_assignment("C[N+](C)(C)CCCCCCCCCC[N+](C)(C)C")
"false"
>>> class_assignment("C[C@]12CCC(=O)C=C1CC[C@@H]1[C@@H]2CC[C@@]2(C)[C@H]1CC[C@]2(O)C(=O)CO")
"false"
>>> class_assignment("CCCCOCCOCCOCc1cc2c(cc1CCC)OCO2")
"false"

In the following, a different compound is considered.
Task: Hey, what did the test say about Cc1ccc(S(=O)(=O)NC(=O)NN2CCCCCC2)cc1 ?
Result: false

Source of measurements: PubChem BioAssay (NCATS)
